experiment: Structure and thermal stability (Tm) by circular dichroism; assay type: physicochemical; conditions: circular dichroism, 0.1 mg/ml, 20° C. to 95° C. at 1° C./min

Substance: B-19-3: EGF mutant, 19th valine substituted with glutamic acid (SEQ ID NO: 68) (NSDSECPLSHDGYCLHDGECMYIEALDKYACNCVVGYIGERCQYRDLKWWELR; not fully specified; Epidermal growth factor; UniProt P01133 971-1023, looked up, variant V19E)
Tm (melting temperature): (76° C.)

Substance: D-35-7: EGF mutant, 35th valine substituted with aspartic acid (SEQ ID NO: 81) (CNCVDGYIGE)
Tm (melting temperature): (76° C.)
